Where do the numbers come from? From patent US10752588B2.

target: human D2R/β-arrestin (Homo sapiens (Human)); assay: β-Arrestin agonist assay (PathHunter); format: cell-based; details: CHO-K1 cell line expressing human D2R/β-arrestin
pEC50: −log10 of the molar value.
assay_endpoint: pEC50

(Q) GET /values?readout=pEC50&item= O=C(NC(c1ccc(F)cc1)c1ccccn1)C1CCN(CCOc2ccccc2C(F)(F)F)CC1 (single isomer, unassigned) [Compound 52b]
(A) < 4.52

(Q) Same thing, different compound: O=C(NC(c1ccc(Cl)cc1)c1ccccn1)C1CCN(CCOc2cccc(Cl)c2)CC1 (single isomer, unassigned) [Compound 1b]
(A) 5.00 to 6.00

(Q) Same thing, different compound: Fc1ccccc1C(NCC1CCN(CCOc2ccccc2)CC1)c1ccc(Cl)cc1 (stereo not shown) [Compound 81]
(A) < 4.52

(Q) Same thing, different compound: COc1cccc(C(NC(=O)C2CCN(CCOc3ccccc3)CC2)c2ccccc2)c1 (stereo not shown) [Compound 146]
(A) < 4.52

(Q) Same thing, different compound: CC(C)N(CC1CCN(CCOc2ccccc2F)CC1)C(c1ccc(Cl)cc1)c1ccccn1 (single isomer, unassigned) [Compound 133b]
(A) > 7.00

(Q) Same thing, different compound: CC(C)(COc1ccccc1)N1CCC(C(=O)NC(c2ccc(F)cc2)c2ccccn2)CC1 (stereo not shown)
(A) < 4.52

(Q) Same thing, different compound: O=C(NC(c1ccccc1)c1ccc(F)cc1)C1CCN(CCOc2ccccc2)CC1 (stereo not shown) [Compound 45]
(A) < 4.52

(Q) Same thing, different compound: O=C(NC(c1ccc(Cl)cc1)c1ccccn1)C1CCN(CCOc2ccccc2Cl)CC1 (stereo not shown)
(A) < 4.52

(Q) Same thing, different compound: O=C(NC(c1ccc2c(c1)OC(F)(F)O2)c1ccccn1)C1CCN(CCOc2ccccc2F)CC1 (stereo not shown) [Compound 94]
(A) 6.00 to 7.00

(Q) Same thing, different compound: CC(C)N(CC1CCN(CCOc2ccc(F)cc2)CC1)C(c1ccc(Cl)cc1)c1ccccn1 (stereo not shown)
(A) < 4.52

(Q) Same thing, different compound: O=C(NC(c1ccc(Cl)cc1)c1ccccn1)C1CCN(CCOC2CCCCC2)CC1 (stereo not shown)
(A) < 4.52

(Q) Same thing, different compound: COc1cccc(C(NCC2CCN(CCOc3ccccc3)CC2)c2ccccn2)c1 (stereo not shown)
(A) < 4.52

(Q) Same thing, different compound: FC(F)(F)CN(CC1CCN(CCOc2ccccc2)CC1)C(c1ccc(Cl)cc1)c1ccccn1 (stereo not shown) [Compound 125]
(A) < 4.52

(Q) Same thing, different compound: O=C(NC(c1ccc(F)cc1)c1ccccn1)C1CCN(CCOc2ccccc2F)CC1 (single isomer, unassigned) [Compound 54b]
(A) < 4.52

(Q) Same thing, different compound: COc1cccc(C(NC(=O)C2(C)CCN(CCOc3ccccc3)CC2)c2ccccn2)c1 (stereo not shown)
(A) 5.00 to 6.00

(Q) Same thing, different compound: O=C(NC(c1ccc(Cl)cc1)c1ccncc1F)C1CCN(CCOc2ccccc2F)CC1 (single isomer, unassigned) [Compound 91a]
(A) < 4.52

---

target: human D2R/β-arrestin (Homo sapiens (Human), UniProt P14416); experiment: Gi/cAMP agonist assay (Lance Ultra cAMP, Forskolin); assay type: cell-based; conditions: CHO-K1 cell line expressing human D2R/β-arrestin
Sequence (P14416 whole entry): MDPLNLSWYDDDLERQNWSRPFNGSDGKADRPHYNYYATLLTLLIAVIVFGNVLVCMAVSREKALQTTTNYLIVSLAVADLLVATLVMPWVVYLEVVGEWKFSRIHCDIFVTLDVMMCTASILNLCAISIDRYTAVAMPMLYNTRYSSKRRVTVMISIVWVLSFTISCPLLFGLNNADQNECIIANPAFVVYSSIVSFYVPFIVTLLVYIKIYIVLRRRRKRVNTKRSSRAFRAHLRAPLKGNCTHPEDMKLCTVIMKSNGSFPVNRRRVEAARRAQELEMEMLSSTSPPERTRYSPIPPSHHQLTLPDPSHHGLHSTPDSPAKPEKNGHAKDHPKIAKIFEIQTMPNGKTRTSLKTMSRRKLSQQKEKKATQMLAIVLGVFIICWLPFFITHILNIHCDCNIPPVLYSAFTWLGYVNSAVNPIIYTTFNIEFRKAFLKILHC
pEC50: −log10 of the molar value.
assay_endpoint: pEC50

(Q) GET /values?readout=pEC50&item= Fc1ccc(F)c(OCCN2CCC(CNC(c3ccc(Cl)cc3)c3ccccn3)CC2)c1 (single isomer, unassigned) [Compound 89a]
(A) < 4.52

(Q) Same thing, different molecule: O=C(NC(c1ccccn1)c1ccccc1C(F)(F)F)C1CCN(CCOc2ccccc2)CC1 (centres unmarked)
(A) 5.00 to 6.00

(Q) Same thing, different molecule: O=C(NC(c1ccc(F)cc1)c1ccccn1)C1CCN(Cc2cc3ccccc3o2)CC1 (centres unmarked)
(A) < 4.52

(Q) Same thing, different molecule: `O=C(NC(c1ccc(F)cc1)c1ccc(F)cc1)C1CCN(CCOc2ccccc2)CC1`
(A) < 4.52

(Q) Same thing, different molecule: O=C(NC(c1ccc2c(c1)OC(F)(F)O2)c1ccccn1)C1CCN(CCOc2ccccc2F)CC1 (single isomer, unassigned) [Compound 94a]
(A) < 4.52

(Q) Same thing, different molecule: CC1(C(=O)NC(c2ccc(F)cc2)c2ccccn2)CCN(CCOc2ccccc2C(F)(F)F)CC1 (single isomer, unassigned) [Compound 70a]
(A) < 4.52

(Q) Same thing, different molecule: O=C(NC(c1ccc(Cl)cc1)c1ccccn1)C1CCN(CCOc2ccc3cccnc3c2)CC1 (single isomer, unassigned) [Compound 16a]
(A) > 7.00

(Q) Same thing, different molecule: O=C(NC(c1cccc(F)c1)c1ccccn1)C1CCN(CCOc2ccccc2)CC1 (centres unmarked) [Compound 26]
(A) < 4.52

(Q) Same thing, different molecule: O=C(NC(c1cccc(F)c1)c1ccccn1)C1CCN(CCOc2ccccc2)CC1 (centres unmarked) [Compound 27]
(A) 6.00 to 7.00

(Q) Same thing, different molecule: c1ccc(OCCN2CCC(CNC(c3ccc4c(c3)OCO4)c3ccccn3)CC2)cc1 (centres unmarked) [Compound 102]
(A) 6.00 to 7.00

(Q) Same thing, different molecule: Fc1ccccc1OCCN1CCC(CN(CC(F)(F)F)C(c2ccc(Cl)cc2)c2ccccn2)CC1 (single isomer, unassigned) [Compound 136b]
(A) < 4.52

(Q) Same thing, different molecule: O=C(NC(c1ccc2c(c1)OC(F)(F)O2)c1ccccn1)C1CCN(CCOc2ccccc2)CC1 (single isomer, unassigned) [Compound 119b]
(A) > 7.00

(Q) Same thing, different molecule: O=C(NC(c1ccc(F)cc1)c1ccccc1F)C1CCN(CCOc2ccccc2)CC1 (centres unmarked)
(A) 5.00 to 6.00

(Q) Same thing, different molecule: O=C(NC(c1ccc(Cl)cc1)c1ccccn1)C1CCN(CCOc2ccccc2C(F)(F)F)CC1 (single isomer, unassigned) [Compound 6a]
(A) < 4.52
